Data credit: patent US20260234139A1

test system: A549; assay: A549 EC50 (cell assay, method not described); assay type: cell-based; settings: A549
pEC50: −log10 of the molar value.
value-kind: pEC50

Known pEC50 results, listed for orientation:
compound	obs-value
CCOC(C)(C)C(O)c1cnc2c(cnn2-c2cccc(-c3nnc[nH]3)c2)c1 (single isomer, unassigned) [Compound 34B]	≤ 6.00
CC(C)OCC(O)c1cnc2c(cnn2-c2cccc(-c3nnc[nH]3)c2)c1 (single isomer, unassigned) [Compound 18A]	> 7.00

## Task Which measured pEC50 value corresponds to CCOC(C)(C)C(O)c1cnc2c(cnn2-c2cccc(-c3nnc[nH]3)c2)c1 (single isomer, unassigned) [Compound 34A] ?
## Result > 7.00

## Task Requested read-out: pEC50. Entry: CC(C)C[C@@H](O)[C@@H](O)c1cnc2c(ccn2-c2cccc(-c3nnc[nH]3)c2)c1 [Compound 3D]
## Result > 7.00

## Task What does the data say about its pEC50? Entry: CC(C)C[C@H](O)C(O)c1cnc2c(ccn2-c2cccc(-c3nnc[nH]3)c2)c1 (stereo in doubt) [Compound 3B]
## Result > 7.00
